assay-system: HDAC3 (Homo sapiens, UniProt O15379)
Sequence (O15379 whole entry): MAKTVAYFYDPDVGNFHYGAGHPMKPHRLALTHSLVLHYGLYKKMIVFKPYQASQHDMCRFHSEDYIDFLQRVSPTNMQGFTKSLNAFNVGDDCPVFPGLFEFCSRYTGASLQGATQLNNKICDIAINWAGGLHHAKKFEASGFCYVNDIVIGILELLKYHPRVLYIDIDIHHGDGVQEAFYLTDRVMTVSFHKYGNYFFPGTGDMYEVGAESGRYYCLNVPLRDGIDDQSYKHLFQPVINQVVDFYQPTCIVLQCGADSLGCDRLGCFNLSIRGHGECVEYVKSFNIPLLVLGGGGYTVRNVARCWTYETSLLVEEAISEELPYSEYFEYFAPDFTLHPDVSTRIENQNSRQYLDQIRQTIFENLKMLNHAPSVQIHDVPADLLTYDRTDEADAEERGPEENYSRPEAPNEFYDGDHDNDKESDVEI
Sequence (Q9Y618 395-489 partner limits assumed): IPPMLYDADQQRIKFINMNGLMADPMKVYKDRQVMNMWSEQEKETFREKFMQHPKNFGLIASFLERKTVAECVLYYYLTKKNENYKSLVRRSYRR
pIC50: −log10 of the molar value.

| mol | pIC50 |
| --- | --- |
| COc1cc2cc(c1)C(=O)Nc1ccccc1NC(=O)[C@@H](CCCCCC(=O)NO)OC/C=C\2 | 6.05 |

----------
Recorded below: pIC50, system HDAC2 (Homo sapiens).
pIC50: −log10 of the molar value.
measured-attribute: pIC50

| compound | measurement |
| --- | --- |
| COc1cc2cc(c1)C(=O)Nc1ccccc1NC(=O)[C@H](CCCCCC(=O)NO)OC/C=C\2 [Example 1] | 5.48 |
| COc1cc2cc(c1)C(=O)Nc1ccccc1NC(=O)[C@@H](CCCCCC(=O)NO)OC/C=C\2 [Example 2] | 5.60 |
